Reference for the values: patent EP4707304A1

Biological target: T1, VLP-hCLDN6 (human) (UniProt P56747)
T1 sequence: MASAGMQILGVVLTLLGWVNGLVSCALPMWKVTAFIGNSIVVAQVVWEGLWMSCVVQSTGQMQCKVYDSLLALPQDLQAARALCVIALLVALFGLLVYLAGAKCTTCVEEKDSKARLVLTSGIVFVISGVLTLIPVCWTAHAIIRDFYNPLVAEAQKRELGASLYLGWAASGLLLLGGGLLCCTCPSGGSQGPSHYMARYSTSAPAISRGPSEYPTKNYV
Test: ELISA, coated VLP-hCLDN6, 10 ul antibody sample (second well), HRP-Protein A
Measured quantity: OD450
Give the figure only, with no unit attached.

Study these solved cases before continuing.
Sample humanized antibody hAb-12 (antibody, V domains shown) VH: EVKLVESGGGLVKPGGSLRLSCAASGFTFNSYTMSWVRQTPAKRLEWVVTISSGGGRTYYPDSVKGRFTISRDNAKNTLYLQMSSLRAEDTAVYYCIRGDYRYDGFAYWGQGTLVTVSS VL: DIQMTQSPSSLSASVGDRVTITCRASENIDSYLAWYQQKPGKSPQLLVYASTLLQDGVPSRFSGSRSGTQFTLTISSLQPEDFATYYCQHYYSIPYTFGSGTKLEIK — what was its OD450?
1.4

Item: humanized antibody hAb-22 (antibody, V domains shown) VH: EVKLVESGGGLVKPGGSLRLSCAASGFTFNSYTMSWVRQTPAKRLEWVVTISSGGGRTYYPDSVKGRFTISRDNARNTLYLQMSSLRAEDTAVYYCIRGDYRYDGFAYWGQGTLVTVSS VL: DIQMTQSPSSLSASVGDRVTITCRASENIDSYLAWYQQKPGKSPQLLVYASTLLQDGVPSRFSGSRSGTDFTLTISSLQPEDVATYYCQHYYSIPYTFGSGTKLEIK
0.96

Moving on to humanized antibody hAb-17 (antibody, V domains shown) VH: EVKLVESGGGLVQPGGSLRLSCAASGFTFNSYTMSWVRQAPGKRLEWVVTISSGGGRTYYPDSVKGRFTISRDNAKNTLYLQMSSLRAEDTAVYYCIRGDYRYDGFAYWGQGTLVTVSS VL: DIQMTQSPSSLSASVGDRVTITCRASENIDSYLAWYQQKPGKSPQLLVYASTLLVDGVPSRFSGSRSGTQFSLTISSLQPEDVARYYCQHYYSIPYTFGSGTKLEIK
1.72

Now look at this entry.
Which measured OD450 value corresponds to humanized antibody hAb-25 (antibody, V domains shown) VH: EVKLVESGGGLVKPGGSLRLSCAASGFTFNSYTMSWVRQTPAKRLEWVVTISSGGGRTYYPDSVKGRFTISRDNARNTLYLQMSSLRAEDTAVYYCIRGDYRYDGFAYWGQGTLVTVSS VL: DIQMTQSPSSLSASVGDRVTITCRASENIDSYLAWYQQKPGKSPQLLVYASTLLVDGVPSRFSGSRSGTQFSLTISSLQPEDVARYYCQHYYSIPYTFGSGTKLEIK ?
1.7
